experiment_description: Blood sampling for THC and CBD plasma concentration after single oral dosing
experimental_setup: dog, plasma, oral, CBD concentration in blood plasma, individual dogs 5-8; 0.24 mg/kg CBD + 0.12 mg/kg THC oral once; 72 h
metric_name: concentration at 72 h (ng/mL)
Answers are plain numbers, in ng/mL.

QUERY: Requested read-out: concentration at 72 h. Entry: "C=C(C)[C@@H]1CCC(C)=C[C@H]1c1c(O)cc(CCCCC)cc1O"
RESULT: 0

###

experiment_description: Blood sampling for THC and CBD plasma concentration after single oral dosing
experimental_setup: dog, plasma, oral, THC level in blood plasma fraction, mean of dogs 1-4; 0.24 mg/kg THC + 0.12 mg/kg CBD oral once; 2 h
metric_name: concentration at 2 h (ng/mL)
Answers are plain numbers, in ng/mL.

QUERY: Requested read-out: concentration at 2 h. Entry: CCCCCc1cc(O)c2c(c1)OC(C)(C)[C@@H]1CCC(C)=C[C@@H]21 [THC, Δ^9-Tetrahydrocannabinol]
RESULT: 26.1

###

experiment_description: Blood sampling for THC and CBD plasma concentration after single oral dosing
experimental_setup: dog, plasma, oral, CBD concentration in blood plasma, mean of dogs 1-4; 0.12 mg/kg CBD + 0.24 mg/kg THC oral once; 8 h
metric_name: concentration at 8 h
Express the reported value numerically, then name its unit.

QUERY: Requested read-out: concentration at 8 h. Entry: "C=C(C)[C@@H]1CCC(C)=C[C@H]1c1c(O)cc(CCCCC)cc1O"
RESULT: 1.3 ng/mL

###

experiment_description: Blood sampling for THC and CBD plasma concentration after single oral dosing
experimental_setup: dog, plasma, oral, CBD concentration in blood plasma, mean of dogs 5-8; 0.24 mg/kg CBD + 0.12 mg/kg THC oral once; 8 h
metric_name: concentration at 8 h (ng/mL)
Give bare numbers, in ng/mL.

QUERY: Requested read-out: concentration at 8 h. Entry: "C=C(C)[C@@H]1CCC(C)=C[C@H]1c1c(O)cc(CCCCC)cc1O"
RESULT: 2.79

###

experiment_description: Blood sampling for THC and CBD plasma concentration after single oral dosing
experimental_setup: dog, plasma, oral, CBD concentration in blood plasma, individual dogs 1-4; 0.12 mg/kg CBD + 0.24 mg/kg THC oral once; 1.5 h
metric_name: concentration at 1.5 h (ng/mL)
Give bare numbers, in ng/mL.

QUERY: Requested read-out: concentration at 1.5 h. Entry: C=C(C)[C@@H]1CCC(C)=C[C@H]1c1c(O)cc(CCCCC)cc1O [CBD, Cannabidiol]
RESULT: 7.5

###

experiment_description: Blood sampling for THC and CBD plasma concentration after single oral dosing
experimental_setup: dog, plasma, po, 0.12 mg/kg, AUC for THC concentration, canine, 0.12 mg/kg THC in combination with 0.24 mg/kg CBD
metric_name: AUC

QUERY: Requested read-out: AUC. Entry: CCCCCc1cc(O)c2c(c1)OC(C)(C)[C@@H]1CCC(C)=C[C@@H]21 [THC, Δ^9-Tetrahydrocannabinol]
RESULT: 0.09 to 0.11 µg·h/mL

###

experiment_description: Blood sampling for THC and CBD plasma concentration after single oral dosing
experimental_setup: dog, plasma, po, 0.24 mg/kg, AUC for CBD concentration, canine, 0.24 mg/kg CBD in combination with 0.12 mg/kg THC
metric_name: AUC

QUERY: Requested read-out: AUC. Entry: "C=C(C)[C@@H]1CCC(C)=C[C@H]1c1c(O)cc(CCCCC)cc1O"
RESULT: 95 to 110 ng·h/mL

###

experiment_description: Blood sampling for THC and CBD plasma concentration after single oral dosing
experimental_setup: dog, plasma, oral, THC level in blood plasma fraction, mean of dogs 1-4; 0.24 mg/kg THC + 0.12 mg/kg CBD oral once; 4 h
metric_name: concentration at 4 h
Express the reported value numerically, then name its unit.

QUERY: Requested read-out: concentration at 4 h. Entry: CCCCCc1cc(O)c2c(c1)OC(C)(C)[C@@H]1CCC(C)=C[C@@H]21 [THC, Δ^9-Tetrahydrocannabinol]
RESULT: 10.1 ng/mL

###

experiment_description: Blood sampling for THC and CBD plasma concentration after single oral dosing
experimental_setup: dog, plasma, oral, CBD concentration in blood plasma, mean of dogs 5-8; 0.24 mg/kg CBD + 0.12 mg/kg THC oral once; 12 h
metric_name: concentration at 12 h (ng/mL)
Give bare numbers, in ng/mL.

QUERY: Requested read-out: concentration at 12 h. Entry: "C=C(C)[C@@H]1CCC(C)=C[C@H]1c1c(O)cc(CCCCC)cc1O"
RESULT: 0.77

###

experiment_description: Blood sampling for THC and CBD plasma concentration after single oral dosing
experimental_setup: dog, plasma, oral, THC level in blood plasma fraction, mean of dogs 1-4; 0.24 mg/kg THC + 0.12 mg/kg CBD oral once; 72 h
metric_name: concentration at 72 h (ng/mL)
One number for each entry, in ng/mL.

QUERY: Requested read-out: concentration at 72 h. Entry: CCCCCc1cc(O)c2c(c1)OC(C)(C)[C@@H]1CCC(C)=C[C@@H]21 [THC, Δ^9-Tetrahydrocannabinol]
RESULT: 0.16

###

experiment_description: Blood sampling for THC and CBD plasma concentration after single oral dosing
experimental_setup: dog, plasma, oral, CBD concentration in blood plasma, mean of dogs 5-8; 0.24 mg/kg CBD + 0.12 mg/kg THC oral once; 3 h
metric_name: concentration at 3 h (ng/mL)
Give bare numbers, in ng/mL.

QUERY: Requested read-out: concentration at 3 h. Entry: C=C(C)[C@@H]1CCC(C)=C[C@H]1c1c(O)cc(CCCCC)cc1O [CBD, Cannabidiol]
RESULT: 7.5

###

experiment_description: Blood sampling for THC and CBD plasma concentration after single oral dosing
experimental_setup: dog, plasma, oral, highest level of CBD recorded, 12 hours post administration
metric_name: concentration at 12 h

QUERY: Requested read-out: concentration at 12 h. Entry: "C=C(C)[C@@H]1CCC(C)=C[C@H]1c1c(O)cc(CCCCC)cc1O"
RESULT: 0.88 ng/mL

###

experiment_description: Blood sampling for THC and CBD plasma concentration after single oral dosing
experimental_setup: dog, plasma, oral, CBD concentration in blood plasma, mean of dogs 5-8; 0.24 mg/kg CBD + 0.12 mg/kg THC oral once; 32 h
metric_name: concentration at 32 h (ng/mL)
Numbers only, in ng/mL.

QUERY: Requested read-out: concentration at 32 h. Entry: "C=C(C)[C@@H]1CCC(C)=C[C@H]1c1c(O)cc(CCCCC)cc1O"
RESULT: 0.34

###

experiment_description: Blood sampling for THC and CBD plasma concentration after single oral dosing
experimental_setup: dog, plasma, oral, CBD concentration in blood plasma, mean of dogs 1-4; 0.12 mg/kg CBD + 0.24 mg/kg THC oral once; 4 h
metric_name: concentration at 4 h (ng/mL)
Give bare numbers, in ng/mL.

QUERY: Requested read-out: concentration at 4 h. Entry: "C=C(C)[C@@H]1CCC(C)=C[C@H]1c1c(O)cc(CCCCC)cc1O"
RESULT: 2.9

###

experiment_description: Blood sampling for THC and CBD plasma concentration after single oral dosing
experimental_setup: dog, plasma, oral, CBD concentration in blood plasma, mean of dogs 1-4; 0.12 mg/kg CBD + 0.24 mg/kg THC oral once; 24 h
metric_name: concentration at 24 h
Express the reported value numerically, then name its unit.

QUERY: Requested read-out: concentration at 24 h. Entry: C=C(C)[C@@H]1CCC(C)=C[C@H]1c1c(O)cc(CCCCC)cc1O [CBD, Cannabidiol]
RESULT: 0.11 ng/mL

###

experiment_description: Blood sampling for THC and CBD plasma concentration after single oral dosing
experimental_setup: dog, plasma, oral, THC level in blood plasma fraction, mean of dogs 5-8; 0.12 mg/kg THC + 0.24 mg/kg CBD oral once; 0.67 h
metric_name: concentration at 0.67 h (ng/mL)
Numbers only, in ng/mL.

QUERY: Requested read-out: concentration at 0.67 h. Entry: CCCCCc1cc(O)c2c(c1)OC(C)(C)[C@@H]1CCC(C)=C[C@@H]21 [THC, Δ^9-Tetrahydrocannabinol]
RESULT: 27.9

###

experiment_description: Blood sampling for THC and CBD plasma concentration after single oral dosing
experimental_setup: dog, plasma, oral, THC level in blood plasma fraction, mean of dogs 5-8; 0.12 mg/kg THC + 0.24 mg/kg CBD oral once; 4 h
metric_name: concentration at 4 h (ng/mL)
Answers are plain numbers, in ng/mL.

QUERY: Requested read-out: concentration at 4 h. Entry: CCCCCc1cc(O)c2c(c1)OC(C)(C)[C@@H]1CCC(C)=C[C@@H]21 [THC, Δ^9-Tetrahydrocannabinol]
RESULT: 4.29

###

experiment_description: Blood sampling for THC and CBD plasma concentration after single oral dosing
experimental_setup: dog, plasma, oral, CBD concentration in blood plasma, mean of dogs 1-4; 0.12 mg/kg CBD + 0.24 mg/kg THC oral once; 1 h
metric_name: concentration at 1 h
Express the reported value numerically, then name its unit.

QUERY: Requested read-out: concentration at 1 h. Entry: C=C(C)[C@@H]1CCC(C)=C[C@H]1c1c(O)cc(CCCCC)cc1O [CBD, Cannabidiol]
RESULT: 11.2 ng/mL

Hello, the source for this data is patent US12083094B2, in case you need it.
